# Assay: Thermodynamic (Equilibrium) solubility in selected buffer
# Assay type: physicochemical
# Condition details: phosphate buffer 50 mM, aqueous buffer, thermodynamic from solid; pH 2.0; Table 25; read-out: Solubility (μg/mL) pH 2.0
Test readout: solubility (µg/mL)

Prompt: Name the reported solubility value associated with the compound Cc1ccc(OCC(=O)N[C@H]2CC[C@H](c3nnc(OCCOC(F)(F)F)o3)NC2)cc1C
Response: 661

A = O=C(COc1ccc(Cl)c(F)c1)N[C@H]1CC[C@H](c2nnc(OC3CCC(F)(F)C3)o2)NC1 (stereo partly drawn)
B = O=C(COc1ccc(C(F)(F)F)nc1)N[C@H]1CC[C@H](c2nnc(OCCOC(F)(F)F)o2)NC1
Prompt: Look at A and B . Which one has the lower recorded solubility number? Reply briefly: the label of your chosen item.
Response: B

###

# Measurement target: human ERG potassium channel (hERG) (Homo sapiens, UniProt Q12809)
# Construct: expressed in transfected cells; host or cells: HEK293, stably transfected, tetracycline-inducible promoter
# Sequence (Q12809 whole entry): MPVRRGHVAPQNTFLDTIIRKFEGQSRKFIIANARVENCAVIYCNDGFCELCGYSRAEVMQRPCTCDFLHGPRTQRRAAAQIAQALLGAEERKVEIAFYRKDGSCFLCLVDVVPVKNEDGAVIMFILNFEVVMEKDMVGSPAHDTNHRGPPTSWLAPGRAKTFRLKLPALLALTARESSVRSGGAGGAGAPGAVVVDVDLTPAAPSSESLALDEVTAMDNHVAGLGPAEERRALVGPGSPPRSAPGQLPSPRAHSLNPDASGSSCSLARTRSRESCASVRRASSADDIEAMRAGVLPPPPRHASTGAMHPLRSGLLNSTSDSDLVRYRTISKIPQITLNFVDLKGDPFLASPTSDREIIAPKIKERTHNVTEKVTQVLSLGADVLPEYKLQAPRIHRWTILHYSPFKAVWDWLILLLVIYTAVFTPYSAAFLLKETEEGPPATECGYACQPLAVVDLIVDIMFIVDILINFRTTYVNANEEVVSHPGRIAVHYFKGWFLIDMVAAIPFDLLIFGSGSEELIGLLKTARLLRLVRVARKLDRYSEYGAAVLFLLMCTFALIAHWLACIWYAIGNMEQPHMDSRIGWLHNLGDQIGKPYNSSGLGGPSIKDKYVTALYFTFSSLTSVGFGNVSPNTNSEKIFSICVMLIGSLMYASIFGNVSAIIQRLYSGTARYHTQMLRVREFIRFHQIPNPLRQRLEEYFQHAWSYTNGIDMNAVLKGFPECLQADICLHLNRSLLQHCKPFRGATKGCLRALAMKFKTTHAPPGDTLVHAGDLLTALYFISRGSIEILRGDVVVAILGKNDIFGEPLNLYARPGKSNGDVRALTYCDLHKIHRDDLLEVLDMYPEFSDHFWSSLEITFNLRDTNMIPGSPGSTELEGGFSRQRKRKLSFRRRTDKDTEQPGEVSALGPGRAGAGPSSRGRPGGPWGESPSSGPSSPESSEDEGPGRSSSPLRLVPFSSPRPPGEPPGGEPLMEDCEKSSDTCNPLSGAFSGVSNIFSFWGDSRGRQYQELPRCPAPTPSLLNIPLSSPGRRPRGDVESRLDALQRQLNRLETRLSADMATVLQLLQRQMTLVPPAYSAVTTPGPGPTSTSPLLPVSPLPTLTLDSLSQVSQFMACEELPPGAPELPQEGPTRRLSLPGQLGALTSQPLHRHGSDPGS
# Assay: hERG channel tail current recording using in vitro Rapid ICE (automated patch-clamp, QPatch HTX)
# Format: cell-based
# Condition details: Table 26
pIC50: −log10 of the molar value.
Listing of entries alongside the reported pIC50.

Prompt: Name the reported pIC50 value associated with the compound O=C(COc1ccc(Cl)c(F)c1)N[C@@H]1CC[C@@H](c2nnc(-c3ccc(Cl)cc3)o2)NC1
Response: 6.00 to 9.00

Prompt: Now try O=C(COc1ccc(C(F)(F)F)cc1)N[C@H]1CC[C@H](c2nnc(OCCOC(F)(F)F)o2)NC1 .
Response: < 5.30

Prompt: Now try O=C(COc1ccc(Cl)c(F)c1)N[C@H]1CC[C@H](c2nnc(OCCC3CC3)o2)NC1 .
Response: 6.00 to 9.00

Prompt: Now try O=C(COc1ccc(Cl)c(F)c1)N[C@H]1CC[C@H](c2nnc(OCCOC3CC3)o2)NC1 .
Response: < 5.30

Now, please, on to the next compound.
Prompt: Name the reported pIC50 value associated with the compound O=C(COc1ccc(Cl)c(Cl)c1)N[C@H]1CC[C@H](c2nnc([C@H]3C[C@@H](OC(F)(F)F)C3)o2)NC1
Response: 5.30 to 6.00

###

Listing of entries alongside the reported IC50.
# Measurement target: human ERG potassium channel (hERG) (Homo sapiens)
# Construct: expressed in transfected cells; host or cells: HEK293, stably transfected, tetracycline-inducible promoter
# Assay: hERG channel tail current recording using in vitro Rapid ICE (automated patch-clamp, QPatch HTX)
# Format: cell-based
# Condition details: Table 26
# Method: Protocol—Measure of the Effect on hERG Channel by Tail Current Recording Using In Vitro Rapid ICE The potency of the example compounds in inhibiting human ERG potassium channel (hERG) tail current was assessed in a recombinant HEK293 cell line stably transfected with hERG cDNA under an inducible promoter, using Rapid ICE (rapid ion channel electrophysiology) assay. Rapid ICE is an automated patch-clamp assay utilizing the QPatch HTX system (Sophion Bioscience A/S). […]

Prompt: Provide value of IC50 for this record tested with human ERG potassium channel (hERG) (Homo sapiens): O=C(COc1ccc(Cl)c(F)c1)N[C@@H]1CC[C@H](c2nnc([C@H]3C[C@@H](OC(F)(F)F)C3)o2)NC1=O (racemic)
Response: > 5 µM

Prompt: Now try CC(C)(C)OC(=O)N1C[C@@H](NC(=O)COc2ccc(Cl)c(F)c2)CC[C@@H]1c1nnc(OCCOC(F)(F)F)o1 .
Response: > 5 µM

Prompt: Now try CC1(OC(F)(F)F)CN(c2nnc([C@H]3CC[C@H](NC(=O)COc4ccc(Cl)c(F)c4)CN3)o2)C1 .
Response: > 5 µM

***
Prompt: Provide value of IC50 for this record tested with human ERG potassium channel (hERG) (Homo sapiens): O=C(COc1ccc(Cl)c(F)c1)N[C@H]1CC[C@H](c2nnc(-c3ccc(C(F)(F)F)cc3)o2)NC1
Response: 0.001 to 1 µM

Data origin, for the record: patent US12258338B2
